The values you see were collected from paper PMC12416549.

# experimental_target: T1, TNFR1 (Homo sapiens, UniProt P19438)
# T1 chain: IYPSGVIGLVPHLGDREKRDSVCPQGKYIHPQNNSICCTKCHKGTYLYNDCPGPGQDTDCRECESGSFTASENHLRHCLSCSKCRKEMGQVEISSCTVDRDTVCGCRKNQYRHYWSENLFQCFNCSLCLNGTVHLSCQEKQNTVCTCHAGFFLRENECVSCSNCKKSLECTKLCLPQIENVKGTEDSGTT
# method_description: yeast display SC50
Doc: threshold 0.5 nM (exclusive). Items with apparent Kd (screen) beneath it return class 1; others return class 0.

D65C (designed binder) MTLQELLREEALRRAEAEAFRYALELLAEKFPEQKEYLLDLAEEIESQIRSLSGVDVEDVRKFLCKEWAWVKELLAEHPAELAEVEAARAARLAELRAEVEAKVAA
class 0
D65I (designed binder) MTLQELLREEALRRAEAEAFRYALELLAEKFPEQKEYLLDLAEEIESQIRSLSGVDVEDVRKFLIKEWAWVKELLAEHPAELAEVEAARAARLAELRAEVEAKVAA
class 1
A94N (designed binder) MTLQELLREEALRRAEAEAFRYALELLAEKFPEQKEYLLDLAEEIESQIRSLSGVDVEDVRKFLDKEWAWVKELLAEHPAELAEVEAARAARLNELRAEVEAKVAA
class 0
L64T (designed binder) MTLQELLREEALRRAEAEAFRYALELLAEKFPEQKEYLLDLAEEIESQIRSLSGVDVEDVRKFTDKEWAWVKELLAEHPAELAEVEAARAARLAELRAEVEAKVAA
class 0
A98L (designed binder) MTLQELLREEALRRAEAEAFRYALELLAEKFPEQKEYLLDLAEEIESQIRSLSGVDVEDVRKFLDKEWAWVKELLAEHPAELAEVEAARAARLAELRLEVEAKVAA
class 0
V85G (designed binder) MTLQELLREEALRRAEAEAFRYALELLAEKFPEQKEYLLDLAEEIESQIRSLSGVDVEDVRKFLDKEWAWVKELLAEHPAELAEGEAARAARLAELRAEVEAKVAA
class 0
